These data points were gathered from patent US20260265358A1.

# Study System: T1, Human Activin A Fc (human, UniProt P03970 309-424 (pig entry))
# T1 construct: also called human Activin A-Fc fusion; human Activin A-Fc antigen; not shown: Fc part
# T1 sequence: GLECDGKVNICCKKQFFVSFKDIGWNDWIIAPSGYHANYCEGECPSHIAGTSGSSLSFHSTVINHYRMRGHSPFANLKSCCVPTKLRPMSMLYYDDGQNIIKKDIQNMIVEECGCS
# Method Description: Octet BLI, IgG, avid
pKd: −log10 of the molar value.
Item-by-item account of pKd

Binder: anti-Activin A antibody Clone H (IgG) (antibody, V domains shown, IgG format; also called Antibody H) VH: QVQLVQSGAEVKKPGASVKVSCKASGYTFTGYHIHWVRQAPGQGLEWMGHISAYSGTTNYAQKLQGRVTMTTDTSTSTAYMELRSLRSDDTAVYYCARARDIAAAGLGAFDYWGQGTLVTVSS VL: EIVLTQSPGTLSLSPGERATLSCRASQSVRSSYLAWYQQKPGQAPRLLIYGASSRATGIPDRFSGSGSGTDFTLTISRLEPEDFAVYYCQQYSNYPRTFGGGTKVEIKR
pKd: 9.18
//
Binder: anti-Activin A antibody Clone K (IgG) (antibody, V domains shown, IgG format; also called Antibody K) VH: QVQLVQSGAEVKKPGSSVKVSCKASGGTSSSYAISWVRQAPGQGLEWMGYIIPAFGTANYAQKFQGRVTITADESTSTAYMELSSLRSEDTAVYYCARPVRTYPLGKYFYHWGQGTLVTVSS VL: EIVLTQSPATLSLSPGERATLSCRASQSVSSYLAWYQQKPGQAPRLLIYDASNRATGIPARFSGSGSGTDFTLTISSLEPEDFAVYYCQQDSIFPPYTFGGGTKVEIKR
pKd: 9.37
//
Binder: anti-Activin A antibody Clone G (IgG) (antibody, V domains shown, IgG format; also called Antibody G) VH: QVQLVQSGAEVKKPGASVKVSCKASGYTFTSYYIHWVRQAPGQGLEWMGAIYAYSGDTNYAQKLQGRVTMTTDTSTSTAYMELRSLRSDDTAVYYCARARDIAAAGLGAFDYWGQGTLVTVSS VL: EIVLTQSPGTLSLSPGERATLSCRASQSVRSSYLAWYQQKPGQAPRLLIYGASSRATGIPDRFSGSGSGTDFTLTISRLEPEDFAVYYCQQYSNYPRTFGGGTKVEIKR
pKd: 9.17
